These entries and their values trace back to PubChem BioAssay (NCI).

Catalogue of compounds with associated growth
Test system: LOX IMVI melanoma
Assay: NCI-60 one-dose screen, 48 h (100 = growth as untreated, 0 = no growth, -100 = all killed)
Details: 10 µM unless noted
Experimental: Growth inhibition of the LOX IMVI human tumor cell line is measured as a screen for anti-cancer activity. Cells are grown in 96 well plates and exposed to the test compound for 48 hours. Compounds are tested at a single concentration, which is 10^-5 M for most compounds. The reported endpoint is percent growth (GI% or GIPRCNT), where numbers from 0 - 100% represent growth inhibition, and numbers from -100% - 0 represent cell death. For example, a value of 40 represents 60% growth inhibition. […]
This is part of a sample that, as a whole, favours compounds with a hit. Of some 83,000 tested, about 20% had one in any assay.
Entry rule: numbers only, all in %.

COMPOUND: CC(=O)N1c2ccccc2NC2=C(C(=O)NC2(C)C)C1c1ccco1 (centres undefined)
VALUE KIND: growth
DISPLAY UNIT: %
MEASURED VALUE: 86.4
--
COMPOUND: C=C1C(=O)O[C@H]2[C@H]1CC/C(CNS(=O)(=O)c1cccc3ccccc13)=C\CC[C@@]1(C)O[C@@H]21
VALUE KIND: growth
DISPLAY UNIT: %
MEASURED VALUE: 14.3
--
COMPOUND: O=C(Nc1ccc(NC(=O)c2cc(=O)[nH]c3ccccc23)cc1)Nc1cccc(Cl)c1
VALUE KIND: growth
DISPLAY UNIT: %
MEASURED VALUE: 87.7

GET /value?item= "O=C(CCN1CCCC1)Nc1ccc2c(NCCc3ccccc3)c3ccccc3nc2c1" &field=growth returns -68

###

system: U251 CNS; assay: NCI-60 one-dose screen, 48 h (100 = growth as untreated, 0 = no growth, -100 = all killed); settings: 10 µM unless noted
The panel holds about 83,000 compounds, 20% with a hit somewhere; the sample as a whole holds those more often. Calls of active or inactive are those of the source. Rule for the calls: active = growth percent below 10; inactive = the rest.
Catalogue of compounds with associated growth

COMPOUND: Cn1ccnc1C(=O)/C=C/c1ccc(CC(=O)Nc2ccc(Cl)cc2)cc1
SUBJECT OF TEST: U251 CNS
growth: 6.28% (active)

GET /value?item= "COc1cc(C(=O)Nc2cc3c(cc2Oc2cc(C)cc(C)c2)C(=O)N(C)[C@@H](CC(=O)N(C)O)C(=O)N3)c(Br)c(OC)c1OC" &field=growth returns -0.595% (active)

GET /value?item= "CCOC(=O)c1nc2c3ccccc3ccn2c1C(=O)OCC" &field=growth returns 105% (inactive)

GET /value?item= "Nc1nc(Nc2ccccc2SSc2ccccc2Nc2nc(N)nc(-c3ccc(C(F)(F)F)cc3)n2)nc(-c2ccc(C(F)(F)F)cc2)n1" &field=growth returns 41.2% (inactive)

GET /value?item= O=C1c2ccccc2CCC12OC2c1cn(-c2ccccc2)nc1-c1ccc(Cl)cc1 (stereo not drawn) &field=growth returns 64.8% (inactive)

GET /value?item= "C#CCNC(=O)[C@H](Cc1ccccc1)NC(=O)[C@]12CC[C@@H](C(=C)C)[C@@H]1[C@H]1CC[C@@H]3[C@@]4(C)CCC(=O)C(C)(C)[C@@H]4CC[C@@]3(C)[C@]1(C)CC2" &field=growth returns 69.1% (inactive)

GET /value?item= "C/C(=N\NC(=O)CSc1nc2ccccc2c(=O)n1CCc1ccc(S(N)(=O)=O)cc1)c1ccccn1" &field=growth returns 31.8% (inactive)

GET /value?item= "Cc1ccc(-c2[nH][nH]c(=O)c2-c2nc3ccccc3s2)cc1" &field=growth returns 103% (inactive)

###

Catalogue of compounds with associated growth
Tested on: RPMI-8226 leukemia
Experiment: NCI-60 one-dose screen, 48 h (100 = growth as untreated, 0 = no growth, -100 = all killed)
Conditions: 10 µM unless noted
Description: Growth inhibition of the RPMI-8226 human tumor cell line is measured as a screen for anti-cancer activity. Cells are grown in 96 well plates and exposed to the test compound for 48 hours. Compounds are tested at a single concentration, which is 10^-5 M for most compounds. The reported endpoint is percent growth (GI% or GIPRCNT), where numbers from 0 - 100% represent growth inhibition, and numbers from -100% - 0 represent cell death. For example, a value of 40 represents 60% growth inhibition. […]
This is part of a sample that, as a whole, favours compounds with a hit. Of some 83,000 tested, about 20% had one in any assay.
Entry rule: numbers only, all in %.

Examples with their reported growth follow.
COMPOUND: N/C(=N\C(N)=N\c1nc2ccccc2s1)c1cccc(Cl)c1
MEASURED VALUE: 80.8
--
COMPOUND: CN(C)c1ccc(C2C(C#N)=C(/N=C/c3ccccc3)Oc3c2ccc2ccccc32)cc1 (configuration not stated)
MEASURED VALUE: 70.6
--
COMPOUND: O=C1c2cccc3c(-c4ccc5c(c4)ncn5C4CCCCC4)ccc(c23)C(=O)N1CCO
MEASURED VALUE: 66.3
--
COMPOUND: CC(C)(C)CC(C)(C)n1nnnc1C(NC12CC3CC(CC(C3)C1)C2)c1ccccc1 (configuration not stated)
MEASURED VALUE: 68.8
--
COMPOUND: NC1=NN=C(N)C1=Cc1cc2ccccc2n2nnnc12
MEASURED VALUE: 105

GET /value?item= "NC(=O)Nc1ccc(-n2cnc3cc(-c4ccc(O)cc4)ccc32)cc1" &field=growth returns 91.5

GET /value?item= "COc1ccc(C(=O)NNc2nc(Cl)nc(N3CCN(C(c4ccccc4)c4ccccc4)CC3)n2)cc1" &field=growth returns 84.2

###

test system: ACHN renal; test: NCI-60 one-dose screen, 48 h; details: 10 µM unless noted
About 83,000 compounds went through this panel and 20% of them were active in at least one assay; those are over-represented in the sample as a whole. Calls of active or inactive are those of the source. Rule for the calls: active = growth percent below 10; inactive = the rest.
Give one outcome, nothing more. List: active, inactive

Query :: Outcome? "COC(=O)/C=C1\S/C(=N\NC(=O)c2cc3ccc2/C=C\c2ccc(cc2)/C=C\3)N(Cc2ccccc2)C1=O"
Result :: inactive

Query :: Outcome? "COc1ccc(C(C)=O)c(OC)c1"
Result :: inactive

Query :: Outcome? "O=C(CCN1CCCC1)Nc1ccc2c(Nc3ccc(F)cc3)c3ccccc3nc2c1"
Result :: active

Query :: Outcome? "COc1cc2oc(-c3cccc(C(=O)Nc4ccc(Cl)cc4)c3)cc(=O)c2c(O)c1OC"
Result :: inactive

###

Catalogue of compounds with associated growth
system: NCI-H226 lung; assay: NCI-60 one-dose screen, 48 h (100 = growth as untreated, 0 = no growth, -100 = all killed); details: 10 µM unless noted
The panel holds about 83,000 compounds, 20% with a hit somewhere; the sample as a whole holds those more often.
Entry rule: numbers only, all in %.

Examples with their reported growth follow.
COMPOUND: O=c1[nH]nc(-c2ccccc2)c2sc3ncc(-c4ccc(Br)cc4)n3c12
DISPLAY UNIT: %
growth: 43.8
//
COMPOUND: C=C(C)[C@@H]1CC[C@]2(C(=O)N3CCN(C)CC3)CC[C@]3(C)[C@H](CC[C@@H]4[C@@]5(C)CC[C@H](OCCC#N)C(C)(C)[C@@H]5CC[C@]43C)[C@@H]12
DISPLAY UNIT: %
growth: 89.4
//
COMPOUND: COc1cccc(C(=O)NNc2nc(Cl)nc(N3CCN(C(c4ccccc4)c4ccccc4)CC3)n2)c1
DISPLAY UNIT: %
growth: 94.9

GET /value?item= "COc1cc2oc(-c3cccc(C(=O)Nc4ccc(Br)cc4)c3)cc(=O)c2c(OC)c1OC" &field=growth returns 10.7

GET /value?item= "COc1ccc(C(=O)/C=C/c2cc3ccccc3n3nnnc23)cc1" &field=growth returns 105

GET /value?item= "O=C1c2ccc3c4c(ccc(c24)C(=O)N1CCCNCc1ccccc1F)C(=O)N(CCCNCc1ccccc1F)C3=O" &field=growth returns -51.9

GET /value?item= CC1(C)CC(O)CCCCCCOc2c(CN)cccc2NC(=O)c2nc(cnc2N)-c2ccc(cc2)S1(=O)=O (stereo not given) &field=growth returns 48.6

GET /value?item= "c1ccc(-c2c(-c3ccccc3)[n+](Cc3ccc4ccccc4c3)c(-c3cccc4ccccc34)n2Cc2ccc3ccccc3c2)cc1" &field=growth returns -42.3

GET /value?item= "CC(=O)CCC(=O)OCc1cc(=O)c(O)co1" &field=growth returns 109

GET /value?item= "CCCCC[n+]1ccc(SCC(=O)N(C)c2ccc(Oc3ccccc3)cc2)c2ccccc21" &field=growth returns 106

###

tested on: SK-MEL-5 melanoma; test: NCI-60 one-dose screen, 48 h; conditions: 10 µM unless noted
About 83,000 compounds went through this panel and 20% of them were active in at least one assay; those are over-represented in the sample as a whole. Activity calls are given as the source filed them. The calls were made as follows: active = growth percent below 10; inactive = the rest.
Give one outcome, nothing more. List: active, inactive

COMPOUND: CCCCOc1ccc(/C(C)=N/Nc2cc(C)nc3ccc(Br)cc23)cc1
QUALITATIVE LABEL: inactive
--
COMPOUND: CCc1ccc(-c2cn3ccnc3c(-c3ccc4ncn(Cc5ccccc5)c4c3)n2)cc1
QUALITATIVE LABEL: inactive

Query :: Outcome? "CN(CCN(C)c1ccc(C(=N)N)cc1)c1ccc(C(=N)N)cc1"
Result :: inactive

Query :: Outcome? "Cc1ccc(-c2[nH][nH]c(=O)c2-c2nc3ccccc3s2)cc1"
Result :: inactive

Query :: Outcome? "CCCCN1C=CCN(CCCC)C1"
Result :: active

Query :: Outcome? "NC(=O)CSSCC(N)=O"
Result :: inactive

Query :: Outcome? "Cn1ccnc1C(=O)/C=C/c1ccc(CC(=O)Nc2ccc(Cl)cc2)cc1"
Result :: inactive

Query :: Outcome? "CC(=O)Oc1ccc(/C=N/NC(N)=S)nc1"
Result :: inactive

Query :: Outcome? "CCNC(=O)Oc1ccc(/C(=C(\C)c2ccccc2)c2ccc(OCCN3CCCCC3)cc2)cc1"
Result :: inactive

Query :: Outcome? CC(=O)N1N=C(c2ccc(-n3ccc(C(F)(F)F)n3)c(F)c2)CC1c1ccc[nH]1 (configuration not stated)
Result :: inactive

Query :: Outcome? "NS(=O)(=O)c1ccc(CCn2c(SCC(=O)c3ccc(Cl)cc3)nc3ccccc3c2=O)cc1"
Result :: inactive

Query :: Outcome? "N#Cc1c(NC(=O)NCc2ccccc2)sc2c1CCCCC2"
Result :: inactive

Query :: Outcome? "CCOC(=O)CCN(CC(C)C)C(=S)Nc1ccccc1"
Result :: inactive

Query :: Outcome? "CCCCCN1C=C/C(=C\C(=O)n2ccc3ccccc32)c2ccccc21"
Result :: inactive

Query :: Outcome? "COc1cccc(-c2nc3occn3c2-c2ccnc(NCCNS(=O)(=O)c3cccc4ccccc34)n2)c1"
Result :: inactive

Query :: Outcome? "Cc1cc2c(c(C)c1Cl)C(=O)/C(=C/c1ccc(O)c(O)c1)O2"
Result :: inactive

Query :: Outcome? "Cc1ccc(/C=N/NC(=O)CSc2nc3ccccc3c(=O)n2Cc2ccc(S(N)(=O)=O)cc2)cc1"
Result :: inactive

Query :: Outcome? "N#C/C(=C\c1cccc(C#N)c1)c1ccccc1"
Result :: inactive

Query :: Outcome? "O=C(O)c1ccc(-c2nn(-c3ccc(C(F)(F)F)cc3)cc2CNc2ccc(Oc3ccccc3)cc2)cc1"
Result :: inactive

Query :: Outcome? "O=C(/C=C(/C=C/c1csc2ccccc12)OB(F)F)/C=C/c1csc2ccccc12"
Result :: inactive

Query :: Outcome? "CC(=O)Nc1ccc(-n2cnc3cc(-c4ccc(OCCN5CCCCC5)cc4)ccc32)cc1"
Result :: inactive

Query :: Outcome? "COc1ccc(-c2cnc3c(-c4cccc5cnccc45)cnn3c2)cc1"
Result :: inactive
